PROTOCOL_TEXT: activity coefficient (dimensionless); of the first substance listed, at infinite dilution; xn = mol fraction of the nth substance listed
SETTINGS: 328.15 K; 101 kPa; Liquid; Chromatography; x1 = 0
Task for the reader: assign each of the following compounds its reported activity coefficient.
Note: the reply should be a number with no unit written.

Record request: activity coefficient value, item C#CCCCCCC [1-octyne] + COCC[N+]1(C)CCCCC1.O=S(=O)([N-]S(=O)(=O)C(F)(F)F)C(F)(F)F
5.92

Same again, this time with C=CCCCCC [1-heptene] + COCC[N+]1(C)CCCCC1.O=S(=O)([N-]S(=O)(=O)C(F)(F)F)C(F)(F)F
11.9

Also need C1=CCCCC1 [cyclohexene] + COCC[N+]1(C)CCCCC1.O=S(=O)([N-]S(=O)(=O)C(F)(F)F)C(F)(F)F , thanks.
5.21

Please answer likewise for CC1CCCCC1 [methylcyclohexane] + COCC[N+]1(C)CCCCC1.O=S(=O)([N-]S(=O)(=O)C(F)(F)F)C(F)(F)F
12.7

Request: CCC(C)CC [3-methylpentane] + COCC[N+]1(C)CCCCC1.O=S(=O)([N-]S(=O)(=O)C(F)(F)F)C(F)(F)F
13.9

And then CC(C)CO [2-methyl-1-propanol] + COCC[N+]1(C)CCCCC1.O=S(=O)([N-]S(=O)(=O)C(F)(F)F)C(F)(F)F , what is it?
2.34

Next compound up: COC(C)(C)C [2-methoxy-2-methylpropane] + COCC[N+]1(C)CCCCC1.O=S(=O)([N-]S(=O)(=O)C(F)(F)F)C(F)(F)F
2.59

Same question, CC(C)O [propan-2-ol] + COCC[N+]1(C)CCCCC1.O=S(=O)([N-]S(=O)(=O)C(F)(F)F)C(F)(F)F this time
1.76

Okay, and CCOC(C)=O [ethyl acetate] + COCC[N+]1(C)CCCCC1.O=S(=O)([N-]S(=O)(=O)C(F)(F)F)C(F)(F)F ?
0.932

Please do the same for COC(C)=O [methyl ethanoate] + COCC[N+]1(C)CCCCC1.O=S(=O)([N-]S(=O)(=O)C(F)(F)F)C(F)(F)F as well.
0.714

Further, for C=CCCCCCC [oct-1-ene] + COCC[N+]1(C)CCCCC1.O=S(=O)([N-]S(=O)(=O)C(F)(F)F)C(F)(F)F ?
17

Entry to check: C=C(C)c1ccccc1 [(1-methylethenyl)benzene] + COCC[N+]1(C)CCCCC1.O=S(=O)([N-]S(=O)(=O)C(F)(F)F)C(F)(F)F
1.61

Repeat with C1CCCCCC1 [cycloheptane] + COCC[N+]1(C)CCCCC1.O=S(=O)([N-]S(=O)(=O)C(F)(F)F)C(F)(F)F
12.5

Moving on to C=CCCC [1-pentene] + COCC[N+]1(C)CCCCC1.O=S(=O)([N-]S(=O)(=O)C(F)(F)F)C(F)(F)F
5.9

What do we get for CCCCCC [hexane] + COCC[N+]1(C)CCCCC1.O=S(=O)([N-]S(=O)(=O)C(F)(F)F)C(F)(F)F ?
16

Item: O [water] + COCC[N+]1(C)CCCCC1.O=S(=O)([N-]S(=O)(=O)C(F)(F)F)C(F)(F)F
2.93

Now consider CCOC(C)(C)C [2-ethoxy-2-methylpropane] + COCC[N+]1(C)CCCCC1.O=S(=O)([N-]S(=O)(=O)C(F)(F)F)C(F)(F)F and answer again.
5.71
